- System Under Test: T1, monomeric human PRLR (hPRLR.mmh; SEQ ID NO:401) (Homo sapiens, UniProt P16471)
- T1 construct: soluble monomeric (hPRLR.mmh); mmh (myc-myc-hexahistidine) (C)
- T1 sequence (P16471 with tags, fused parts or gaps): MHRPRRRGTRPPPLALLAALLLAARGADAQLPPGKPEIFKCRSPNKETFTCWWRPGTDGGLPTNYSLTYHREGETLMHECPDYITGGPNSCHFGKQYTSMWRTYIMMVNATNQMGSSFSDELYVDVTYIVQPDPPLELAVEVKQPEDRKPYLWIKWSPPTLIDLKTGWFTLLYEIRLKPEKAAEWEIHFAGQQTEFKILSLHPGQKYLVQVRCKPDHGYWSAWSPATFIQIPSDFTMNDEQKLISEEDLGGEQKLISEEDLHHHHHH
- Method Notes: Surface plasmon resonance (Biacore T200), antibody-capture format
- Assay type: binding
- Conditions: 37° C., analyte hPRLR.mmh
Parameter: kd
Number first, unit second.

Kindly indicate its recorded kd. Item: H1H6975N: anti-PRLR antibody, human IgG1 Fc form of H2M6975N of Table 1; HCVR/LCVR SEQ ID NOs 370/378 (antibody, V domains shown, human IgG1 Fc) VH: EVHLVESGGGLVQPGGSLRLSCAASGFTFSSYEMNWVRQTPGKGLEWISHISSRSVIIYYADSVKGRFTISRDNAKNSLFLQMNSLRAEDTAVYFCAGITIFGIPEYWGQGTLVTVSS VL: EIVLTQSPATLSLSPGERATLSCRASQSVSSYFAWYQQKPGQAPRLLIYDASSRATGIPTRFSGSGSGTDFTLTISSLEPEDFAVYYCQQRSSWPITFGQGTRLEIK 0.000273 s⁻¹

Kindly indicate its recorded kd. Item: H1H6781P: fully human anti-PRLR antibody, human IgG1 Fc; HCVR/LCVR SEQ ID NOs 50/58 (antibody, V domains shown) VH: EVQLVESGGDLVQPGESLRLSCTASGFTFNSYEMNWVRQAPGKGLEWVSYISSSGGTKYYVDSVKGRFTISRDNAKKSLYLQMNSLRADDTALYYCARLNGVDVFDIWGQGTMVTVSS VL: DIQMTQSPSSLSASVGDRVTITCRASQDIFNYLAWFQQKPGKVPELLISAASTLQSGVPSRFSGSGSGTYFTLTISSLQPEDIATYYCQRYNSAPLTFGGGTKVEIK 0.000309 s⁻¹
